Observed IC50 values for full-length MALT1 protein (Strep-MALT1(1-824)-His) (Homo sapiens (Human)) are listed in what follows.
assayEndpoint: IC50 (nM)

compound	scaleUnit	IC50
N#Cc1cc(NC(=O)c2cnn(-c3cccc4ncccc34)c2C(F)(F)F)ccc1-n1nccn1	nM	19

(a) COc1cc(NC(=O)c2cnn(-c3cccc4ncccc34)c2C(F)(F)F)cnc1-n1nccn1
(b) CCc1cc(NC(=O)c2cnn(-c3cccc4nccn34)c2C(F)(F)F)c(CC)nc1-n1nccn1
(c) O=C(Nc1cnc(-c2nn[nH]n2)c(Cl)c1)c1cnn(-c2cccc3ncccc23)c1C(F)(F)F
(d) O=C(Nc1ccnc(C(F)(F)F)c1)c1cnn(-c2cccc3ncccc23)c1C(F)(F)F
Input line: // ranking: key=IC50, reverse=True API: response body holds the labels in the requested order.
Output line: b, a, d, c
(b: 3160 nM, a: 302 nM, d: 91 nM, c: 58 nM)

(1) Cc1ncc(NC(=O)c2cnn(-c3cnc(N)c4ccccc34)c2C(F)(F)F)cc1C(F)(F)F
(2) O=C(Nc1cnc(-n2nccn2)c(Cl)c1)c1cnn(-c2cccc3nc([C@@H]4CCCO4)ccc23)c1C(F)(F)F (single isomer, unassigned)
Input line: Between 1 and 2 , which one shows the larger IC50 value? Reply briefly: the label of your chosen item.
Output line: 2

====

System: TMD8 cells
protocolText: 4-day proliferation assay, TMD8
Type: cell-based
conditionNotes: Homo sapiens, 96 h, 4 days incubation, CellTiterGLO, read-out: Anti-proliferation: TMD-8 IC50
// values below are reported pIC50
Please note pIC50 is a logarithmic value: minus log10 of concentration in mol/L. Answer with that number alone.

Worked set:
smilesData	testedTarget	pIC50
O=C(Nc1cnc(-c2ncco2)c(Cl)c1)c1cnn(-c2cncc3ccccc23)c1C(F)(F)F	TMD8 cells	5.15
Cc1nc(-n2nccn2)c(Cl)cc1NC(=O)c1cnn(-c2cncc3ccccc23)c1C(F)(F)F	TMD8 cells	6.04
Cc1ncnn1-c1ncc(NC(=O)c2cnn(-c3cncc4ccccc34)c2C(F)(F)F)cc1Cl	TMD8 cells	5.06
O=C(Nc1cnc(-n2cc(CO)cn2)c(Cl)c1)c1cnn(-c2cccc3c(=O)[nH]ccc23)c1C(F)(F)F	TMD8 cells	5.28
O=C(Nc1cnc(-n2nccn2)c(Cl)c1)c1cnn(-c2ccnc3ccccc23)c1C(F)(F)F	TMD8 cells	5.55
Cc1nc(-c2ccn(C)n2)c(Cl)cc1NC(=O)c1cnn(-c2cccc3c(=O)[nH]ccc23)c1C(F)(F)F	TMD8 cells	5.05

Now examine the next entry.
Input line: Quick one: pIC50 of O=C(Nc1cc(Cl)c(-n2nccn2)cc1F)c1cnn(-c2cccc3c(=O)[nH]ccc23)c1C(F)(F)F ?
Output line: 5.32

====

Tested on: IL10 secretion by TMD8 ABC-DLBCL cells
protocolText: Human IL10 Mesoscale assay (TMD-8)
Assay type: cell-based
conditionNotes: Homo sapiens, TMD8; TMD-8 cells, 24 h
assayEndpoint: IC50 (nM)

Worked set:
molecule	testedTarget	IC50 (nM)
Cc1cn(-c2nc(C)c(NC(=O)c3cnn(-c4cccc5c(=O)[nH]ccc45)c3C(F)(F)F)cc2Cl)nn1 [Cpd 362]	IL10 secretion by TMD8 ABC-DLBCL cells	1180
N#Cc1cc(NC(=O)c2cnn(-c3nccc4sccc34)c2C(F)(F)F)cnc1-n1nccn1 [Cpd 90]	IL10 secretion by TMD8 ABC-DLBCL cells	135
N#Cc1cc(NC(=O)c2cnn(-c3cnnc4ccccc34)c2C(F)(F)F)cnc1-n1nccn1 [Cpd 93]	IL10 secretion by TMD8 ABC-DLBCL cells	501
CN(C)Cc1cnn(-c2ncc(NC(=O)c3cnn(-c4cccc5ncccc45)c3C(F)(F)F)cc2Cl)n1 [Cpd 137]	IL10 secretion by TMD8 ABC-DLBCL cells	200
NCc1cnnn1-c1ncc(NC(=O)c2cnn(-c3cccc4ncccc34)c2C(F)(F)F)cc1Cl [Cpd 248]	IL10 secretion by TMD8 ABC-DLBCL cells	468

(1) N#Cc1cc(NC(=O)c2cnn(-c3nccc4occc34)c2C(F)(F)F)cnc1-n1nccn1 [Cpd 94]
(2) N#Cc1cc(NC(=O)c2cnn(-c3cccc4ncccc34)c2C(F)(F)F)cnc1-n1cccc1 [Cpd 280]
(3) O=C(Nc1cnc(-n2nccn2)c(Cl)c1)c1cnn(-c2c[nH]c(=O)c3c(F)cccc23)c1C(F)(F)F [Cpd 184]
(4) O=C(Nc1cnc(-n2cccn2)c(Cl)c1)c1cnn(-c2cncc3ccccc23)c1C(F)(F)F [Cpd 46]
Input line: Write the entries in order, lowest recorded IC50 first. API: response body holds the labels in the requested order.
Output line: 4, 1, 3, 2

====

// values below are reported pIC50
Test system: TMD8 cells
protocolText: 4-day proliferation assay, TMD8
Format: cell-based
conditionNotes: Homo sapiens, 96 h, 4 days incubation, CellTiterGLO, read-out: Anti-proliferation: TMD-8 IC50
Please note pIC50 is a logarithmic value: minus log10 of concentration in mol/L. Answer with that number alone.

smilesData	assayEndpoint	readoutNumber
O=C(Nc1cnc(-n2nccn2)c(Cl)c1)c1cnn(-c2cccc3nc(Cl)ccc23)c1C(F)(F)F	pIC50	5.59

Now examine the next entry.
Input line: Quick one: pIC50 of NC(=O)c1cnn(-c2ncc(NC(=O)c3cnn(-c4cccc5ncccc45)c3C(F)(F)F)cc2Cl)n1 ?
Output line: 5.59

====

Tested on: IL6 secretion by OCI-LY3 ABC-DLBCL cells
protocolText: Human IL6 Mesoscale assay (OCI-LY3)
Format: cell-based
conditionNotes: Homo sapiens, 24 h
pIC50: −log10 of the molar value.
assayEndpoint: pIC50

Worked set:
smilesData	pIC50
O=C(Nc1ccnc(C(F)(F)F)c1)c1cnn(-c2cncc3sccc23)c1C(F)(F)F	7.55
Nc1ncc(-n2ncc(C(=O)Nc3cnc(-n4nccn4)c(Cl)c3)c2C(F)(F)F)c2cccc(F)c12	7.60

(1) O=C(Nc1cnc(-n2nccn2)c(Cl)c1)c1cnn(-c2ccnc3ccccc23)c1C(F)(F)F
(2) Cc1cc(-n2nccn2)c(C#N)cc1NC(=O)c1cnn(-c2cccc3c(=O)[nH]ccc23)c1C(F)(F)F
Input line: Between 1 and 2 , which one shows the larger pIC50 value? Reply briefly: the label of your chosen item.
Output line: 2
(2: 7.66, 1: 6.97)

====

testedTarget: full-length MALT1 protein (Strep-MALT1(1-824)-His) (Homo sapiens (Human))
Sequence (Q9UDY8 whole entry): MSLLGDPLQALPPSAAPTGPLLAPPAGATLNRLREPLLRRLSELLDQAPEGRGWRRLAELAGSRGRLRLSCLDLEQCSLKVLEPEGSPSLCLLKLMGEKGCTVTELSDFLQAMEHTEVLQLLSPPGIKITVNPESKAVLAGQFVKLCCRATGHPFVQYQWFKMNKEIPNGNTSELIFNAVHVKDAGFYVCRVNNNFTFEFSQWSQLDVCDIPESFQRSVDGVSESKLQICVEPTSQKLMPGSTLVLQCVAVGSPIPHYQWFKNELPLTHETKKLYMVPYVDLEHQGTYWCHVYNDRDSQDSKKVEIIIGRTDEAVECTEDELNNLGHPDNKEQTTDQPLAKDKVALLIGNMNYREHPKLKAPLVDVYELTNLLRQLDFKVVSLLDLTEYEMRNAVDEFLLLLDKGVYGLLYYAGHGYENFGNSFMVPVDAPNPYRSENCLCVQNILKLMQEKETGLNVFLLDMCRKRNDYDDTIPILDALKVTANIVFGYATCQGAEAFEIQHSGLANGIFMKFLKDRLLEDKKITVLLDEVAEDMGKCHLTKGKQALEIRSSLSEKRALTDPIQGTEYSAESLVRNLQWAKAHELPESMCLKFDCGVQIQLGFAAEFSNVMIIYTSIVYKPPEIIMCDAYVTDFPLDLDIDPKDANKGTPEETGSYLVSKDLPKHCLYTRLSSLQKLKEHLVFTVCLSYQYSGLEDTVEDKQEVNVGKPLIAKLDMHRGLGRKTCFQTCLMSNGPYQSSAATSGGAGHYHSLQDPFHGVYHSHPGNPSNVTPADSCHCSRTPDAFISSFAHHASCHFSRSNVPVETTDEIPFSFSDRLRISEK
pIC50: −log10 of the molar value.
assayEndpoint: pIC50

compound	assayEndpoint	readoutNumber
O=C(Nc1cnc(-n2nccn2)c(Cl)c1)c1cnn(-c2cnc(C3CCN3)c3ccccc23)c1C(F)(F)F (stereo not shown)	pIC50	6.30

(1) O=C(Nc1cnc(-n2nccn2)c(Cl)c1)c1cnn(-c2cnc(CO)c3ccccc23)c1C(F)(F)F
(2) N#Cc1cc(NC(=O)c2cnn(-c3ccnc4c(F)cccc34)c2C(F)(F)F)cnc1-n1nccn1
Input line: // which entry reports the smaller pIC50, 1 or 2 ? Reply briefly: the label of your chosen item.
Output line: 1
(1: 7.27, 2: 7.72)

====

Tested on: IL10 secretion by TMD8 ABC-DLBCL cells
protocolText: Human IL10 Mesoscale assay (TMD-8)
Assay type: cell-based
conditionNotes: Homo sapiens, TMD8; TMD-8 cells, 24 h
assayEndpoint: IC50 (nM)

Worked set:
compound	IC50, nM
O=C(Nc1cnc(-n2nccn2)c(C(F)(F)F)c1)c1cnn(-c2cccc3ncccc23)c1C(F)(F)F	132
NC(=O)c1ccc2c(-n3ncc(C(=O)Nc4cnc(-n5nccn5)c(Cl)c4)c3C(F)(F)F)cccc2n1	54
N#Cc1cc(NC(=O)c2cnn(-c3cnc(N)c4ccccc34)c2C(F)(F)F)cnc1-n1nccn1	2340
O=C(Nc1cnc(-n2nccn2)c(Cl)c1)c1cnn(-c2cccc3snnc23)c1C(F)(F)F	851

(A) Cc1ncnn1-c1ncc(NC(=O)c2cnn(-c3cncc4ccccc34)c2C(F)(F)F)cc1Cl
(B) O=C(Nc1ccnc(N2CCOCC2)c1)c1cnn(-c2cccc3c(=O)[nH]ccc23)c1C(F)(F)F
Input line: Between A and B , which one shows the larger IC50 value? Reply briefly: the label of your chosen item.
Output line: B
(B: 617 nM, A: 269 nM)

====

Tested on: IL6 secretion by OCI-LY3 ABC-DLBCL cells
protocolText: Human IL6 Mesoscale assay (OCI-LY3)
Assay type: cell-based
conditionNotes: Homo sapiens, 24 h
pIC50: −log10 of the molar value.
assayEndpoint: pIC50

compound	readoutNumber
O=C(Nc1cnc(-c2cn[nH]n2)c(Cl)c1)c1cnn(-c2cccc3ncccc23)c1C(F)(F)F	6.82
O=C(Nc1cnc(-n2ccnn2)c(Br)c1)c1cnn(-c2cccc3ncccc23)c1C(F)(F)F	6.64
Cn1c(=O)cc(-n2ncc(C(=O)Nc3cnc(-n4nccn4)c(Cl)c3)c2C(F)(F)F)c2ccccc21	5.78

(I) N#Cc1cc(NC(=O)c2cnn(-c3ccc(F)c4ncccc34)c2C(F)(F)F)cnc1-n1nccn1
(II) Cc1nc(-n2nccn2)c(C#N)cc1NC(=O)c1cnn(-c2cccc3c(=O)[nH]ccc23)c1C(F)(F)F
(III) Cn1ncc2c(-n3ncc(C(=O)Nc4cnc(-n5nccn5)c(C#N)c4)c3C(F)(F)F)ccnc21
(IV) COc1ccc2c(-n3ncc(C(=O)Nc4cnc(-n5nccn5)c(Cl)c4)c3C(F)(F)F)cccc2n1
Input line: // ranking: key=pIC50, reverse=True API: response body holds the labels in the requested order.
Output line: III, II, I, IV
(III: 7.29, II: 6.93, I: 6.66, IV: 6.35)

(I) N#Cc1cc(NC(=O)c2cnn(-c3cccc4scnc34)c2C(F)(F)F)cnc1-n1nccn1
(II) CNc1ncc(-n2ncc(C(=O)Nc3cnc(-n4nccn4)c(Cl)c3)c2C(F)(F)F)c2cccc(F)c12
(III) Nc1cnn(-c2ncc(NC(=O)c3cnn(-c4cccc5scnc45)c3C(F)(F)F)cc2Cl)n1
(IV) NC(=O)c1cn(-c2ncc(NC(=O)c3cnn(-c4cccc5ncccc45)c3C(F)(F)F)cc2Cl)nn1
(V) COC(=O)c1ncc(NC(=O)c2cnn(-c3cccc4c(=O)[nH]ccc34)c2C(F)(F)F)cc1Cl
Input line: Write the entries in order, lowest recorded pIC50 first. API: response body holds the labels in the requested order.
Output line: V, III, I, IV, II

(A) C[C@H](O)c1nccc2c(-n3ncc(C(=O)Nc4cnc(-n5nccn5)c(Cl)c4)c3C(F)(F)F)cccc12 (single isomer, unassigned)
(B) Cc1ncc(NC(=O)c2cnn(-c3cccc4c(=O)[nH]ccc34)c2C(F)(F)F)cc1C(F)(F)F
Input line: Between A and B , which one shows the larger pIC50 value? Reply briefly: the label of your chosen item.
Output line: B

(1) N#Cc1cc(NC(=O)c2cnn(-c3cnc4ccccn34)c2C(F)(F)F)cnc1-n1nccn1
(2) Cc1cc2nccc(-n3ncc(C(=O)Nc4cnc(-n5nccn5)c(C#N)c4)c3C(F)(F)F)c2s1
Input line: // which entry reports the smaller pIC50, 1 or 2 ? Reply briefly: the label of your chosen item.
Output line: 2

(I) CC(C)(C)OC(=O)N1CCC1c1nccc2c(-n3ncc(C(=O)Nc4cnc(-n5nccn5)c(Cl)c4)c3C(F)(F)F)cccc12 (stereo not drawn)
(II) O=C(Nc1cnc(-n2nccn2)c(Cl)c1)c1cnn(-c2cnc(C(F)F)c3ccccc23)c1C(F)(F)F
(III) Cc1nc(-n2nccn2)c(Cl)cc1NC(=O)c1cnn(-c2cc(=O)[nH]c3ccccc23)c1C(F)(F)F
Input line: // ranking: key=pIC50, reverse=True API: response body holds the labels in the requested order.
Output line: I, II, III
(I: 7.57, II: 7.30, III: 6.91)

(a) Cn1nc(-c2ncc(NC(=O)c3cnn(-c4cccc5ncccc45)c3C(F)(F)F)cc2C#N)cc1C(=O)O
(b) NC(=O)c1ncc(-n2ncc(C(=O)Nc3cnc(-n4nccn4)c(Cl)c3)c2C(F)(F)F)c2ccccc12
(c) Cc1nc(-n2nccn2)c(C#N)cc1NC(=O)c1cnn(-c2cccc3nnsc23)c1C(F)(F)F
Input line: // ranking: key=pIC50, reverse=True API: response body holds the labels in the requested order.
Output line: a, b, c

(P) Cc1cc(NC(=O)c2cnn(-c3cccc4c(=O)[nH]ccc34)c2C(F)(F)F)ccn1
(Q) N#Cc1cc(NC(=O)c2cnn(-c3ccnc4cccnc34)c2C(F)(F)F)cnc1-n1nccn1
(R) Cc1nc(-n2cccn2)c(Cl)cc1NC(=O)c1cnn(-c2cnc(N)c3ccccc23)c1C(F)(F)F
Input line: Write the entries in order, lowest recorded pIC50 first. API: response body holds the labels in the requested order.
Output line: R, Q, P
(R: 6.68, Q: 7.08, P: 7.37)

(P) O=C(Nc1cnc(-n2nccn2)c(Cl)c1)c1cnn(-c2cc(C3CCN3)nc3ccccc23)c1C(F)(F)F (stereo not drawn)
(Q) Cc1nc(-n2nccn2)c(Cl)cc1NC(=O)c1cnn(-c2cccc3c(=O)[nH]ccc23)c1C(F)(F)F
(R) N#Cc1cc(NC(=O)c2cnn(-c3ccnc4nccn34)c2C(F)(F)F)cnc1-n1nccn1
Input line: Write the entries in order, lowest recorded pIC50 first. API: response body holds the labels in the requested order.
Output line: R, Q, P
